B1: 2M8U (parent)
chain: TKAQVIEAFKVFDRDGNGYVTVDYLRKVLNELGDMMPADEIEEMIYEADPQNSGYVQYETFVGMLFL

- Variants of: B1
- procedure text: folding stability dG (cDNA display proteolysis); higher = more stable
- assay setup: PBS, room temperature
Listed here are variants together with their documented folding stability dG.
assay endpoint: folding stability dG (kcal/mol)

residue string: TKAQVIEAFKVFDRDGNGYVNVDYLRKVLNELGDMMPADEIEEMIYEADPQNSGYVQYETFVGMLFL [T21N]
assay endpoint: folding stability dG
endpoint value: 3.24
--
residue string: TKAQVIEAFKVFDRDGNGYVTVDYLRKVLNELGDMMPADEIEEMIYEADPQNSSYVQYETFVGMLFL [G54S]
assay endpoint: folding stability dG
endpoint value: 2.48
--
residue string: TKAQVIEAFKVFDRDGNGYVTVDYLRKVLNELGDMMPADEVEEMIYEADPQNSGYVQYETFVGMLFL [I41V]
assay endpoint: folding stability dG
endpoint value: 3.4
--
residue string: TKAQVIEAFKVFDRDGNGYVEVDYLRKVLNELGDMMPADEIEEMIYEADPQNSGYVQYETFVGMLFL [T21E]
assay endpoint: folding stability dG
endpoint value: 3.65
--
residue string: TKAQVIEAFKVFDRDGNGYVTVDYLRKVLNELGDMMIADEIEEMIYEADPQNSGYVQYETFVGMLFL [P37I]
assay endpoint: folding stability dG
endpoint value: 3.41
--
residue string: TKAQVIEAFKVFRRDGNGYVTVDYLRKVLNELGDMMPADEIEEMIYEADPQNSGYVQYETFVGMLFL [D13R]
assay endpoint: folding stability dG
endpoint value: 1.21
--
residue string: TKAQVIEAFKVFDRDGNGYVTVDYLRKVLNELGDMMPADEIEEMIYEADPQNSIYVQYETFVGMLFL [G54I]
assay endpoint: folding stability dG
endpoint value: 2.76
--
residue string: TKAQVIEAFKVFDRDGNGYVTVDYLRKVLNELGDMMPADEIEEMIYEADPQNSGYVQYETFVGMLNL [F66N]
assay endpoint: folding stability dG
endpoint value: 2.92
--
residue string: TKAQVIEAFNVFDRDGNGYVTVDYLRKVLNELGDMMPADEIEEMIYEADPQNSGYVQYETFVGMLFL [K10N]
assay endpoint: folding stability dG
endpoint value: 2.74
--
residue string: TKPQVIEAFKVFDRDGNGYVTVDYLRKVLNELGDMMPADEIEEMIYEADPQNSGYVQYETFVGMLFL [A3P]
assay endpoint: folding stability dG
endpoint value: 2.67
--
residue string: TKAQVIEAFKVFDRDGNGYVTVDYLRKVLNELGDMMPADEIEEMIYEADPQNSGYVQYETFVGELFL [M64E]
assay endpoint: folding stability dG
endpoint value: 3.29
--
residue string: TKAQVIEAFKVFDRDGNGYVTVDYLRKVLNELGDMMPADEIEEMIYEADPQNSGYVQYEDFVGMLFL [T60D]
assay endpoint: folding stability dG
endpoint value: 3.42
--
residue string: TKAQVIEAFKVFDRDGNGYVTVDYLRKVLNELGDMMPADEIEEMIYEGDPQNSGYVQYETFVGMLFL [A48G]
assay endpoint: folding stability dG
endpoint value: 2.64
--
residue string: TKAQVIEAFKVFDRDGNGYVTVDYLRKVLNELGDMMPADEIEEMIYEADPQNSGYVQYETFVGCLFL [M64C]
assay endpoint: folding stability dG
endpoint value: 3.37
--
residue string: TKAQVIEAFKVFDRDGNGYVTVDYGRKVLNELGDMMPADEIEEMIYEADPQNSGYVQYETFVGMLFL [L25G]
assay endpoint: folding stability dG
endpoint value: 1.92
--
residue string: TKAQVIEAFKVFDRDGNGYVTVDYYRKVLNELGDMMPADEIEEMIYEADPQNSGYVQYETFVGMLFL [L25Y]
assay endpoint: folding stability dG
endpoint value: 1.83
--
residue string: TKAQVIEAFKVFDRDGNPYVTVDYLRKVLNELGDMMPADEIEEMIYEADPQNSGYVQYETFVGMLFL [G18P]
assay endpoint: folding stability dG
endpoint value: 2.71
--
residue string: TKAQVDEAFKVFDRDGNGYVTVDYLRKVLNELGDMMPADEIEEMIYEADPQNSGYVQYETFVGMLFL [I6D]
assay endpoint: folding stability dG
endpoint value: 2.38
--
residue string: TKAQVIEAFKVFDRDGNGYVTVDYLRKVLNELGDMMPADEIEIMIYEADPQNSGYVQYETFVGMLFL [E43I]
assay endpoint: folding stability dG
endpoint value: 3.87
--
residue string: TMAQVIEAFKVFDRDGNGYVTVDYLRKVLNELGDMMPADEIEEMIYEADPQNSGYVQYETFVGMLFL [K2M]
assay endpoint: folding stability dG
endpoint value: 3.65
--
residue string: TKAQVIEAFKVFDRDGNLYVTVDYLRKVLNELGDMMPADEIEEMIYEADPQNSGYVQYETFVGMLFL [G18L]
assay endpoint: folding stability dG
endpoint value: 2.92
--
residue string: TKAQVIEAFKVFDRDGNGYVTVDYLRKVLNELGDMMPADEIEEMIYEADPQLSGYVQYETFVGMLFL [N52L]
assay endpoint: folding stability dG
endpoint value: 3.36
--
residue string: TWAQVIEAFKVFDRDGNGYVTVDYLRKVLNELGDMMPADEIEEMIYEADPQNSGYVQYETFVGMLFL [K2W]
assay endpoint: folding stability dG
endpoint value: 2.67
--
residue string: TKAQVIEAFKVFDRDGNGYVTVDYLRKVLNELGDMMPADEIEEMIYEADPQNSGYVQYETFVGTLFL [M64T]
assay endpoint: folding stability dG
endpoint value: 3.29
--
residue string: TKAQVIEAFKVFDRDSNGYVTVDYLRKVLNELGDMMPADEIEEMIYEADPQNSGYVQYETFVGMLFL [G16S]
assay endpoint: folding stability dG
endpoint value: 3.03
--
residue string: TKAQVIEAFKVFDRDGNGYVTVDYLRKVLNELGDMMPADEIEEMIYEADPQNSQYVQYETFVGMLFL [G54Q]
assay endpoint: folding stability dG
endpoint value: 2.29
--
residue string: TKAQVIEAFKVFDRDGNGYVTVDYLRKVLNELGDMMPADEIEEMCYEADPQNSGYVQYETFVGMLFL [I45C]
assay endpoint: folding stability dG
endpoint value: 2.67
--
residue string: TKAQVIEAFKVFDRDGNGYVTVDVLRKVLNELGDMMPADEIEEMIYEADPQNSGYVQYETFVGMLFL [Y24V]
assay endpoint: folding stability dG
endpoint value: 4.38
--
residue string: TKAQVIEAFKVFDRDGNGYVTVDYLRKVLNELGDMMPADEIEEMIYEADPQNSGYVQYETFVGMLFI [L67I]
assay endpoint: folding stability dG
endpoint value: 3.3
--
residue string: TKAQVIEAFKVFDRDGNGYVTVPYLRKVLNELGDMMPADEIEEMIYEADPQNSGYVQYETFVGMLFL [D23P]
assay endpoint: folding stability dG
endpoint value: 3.44
--
residue string: TKAQVIEAFKVFDRDGNGYVTVDYLRKVLNELGDMMPADEIESMIYEADPQNSGYVQYETFVGMLFL [E43S]
assay endpoint: folding stability dG
endpoint value: 3.74
--
residue string: TKAQVIEAFKVFDRDGNGYVTVDYLRKVLNELGDMMPADEIEEMIYEADPQNSGYVQPETFVGMLFL [Y58P]
assay endpoint: folding stability dG
endpoint value: 1.71
--
residue string: TKAQVIEAFKVFDRDGNGYVTVDYLRKVLNELGDMMPADEIEEMIYEADPQNSGYVQYETNVGMLFL [F61N]
assay endpoint: folding stability dG
endpoint value: 1.32
--
residue string: TKAQVIEAFKVFDRDGNGYVTVDYLRKVLNELGDMMPADDIEEMIYEADPQNSGYVQYETFVGMLFL [E40D]
assay endpoint: folding stability dG
endpoint value: 3.69
--
residue string: TKAQVIEAFKVVDRDGNGYVTVDYLRKVLNELGDMMPADEIEEMIYEADPQNSGYVQYETFVGMLFL [F12V]
assay endpoint: folding stability dG
endpoint value: 3.03
--
residue string: TKAQVIEAFKVFDRDGNGYVTVDYLRKVLNELGDMMPADEIEEMIYMADPQNSGYVQYETFVGMLFL [E47M]
assay endpoint: folding stability dG
endpoint value: 3.87
